# Read-out: Plasminogen activator inhibitor-1 (PAI1), SERPINE1 (gene 5054)
# METHOD SUMMARY: BSK_BE3C_PAI1: BioMAP Diversity Plus: BE3C Assay for Plasminogen activator inhibitor-1 (PAI1) Biomarker Activity (AID 2283037)
# TEST CONTEXT: primary human bronchial epithelial cells; actives raise or lower the signal
# Protocol: BSK_BE3C is a cell-based, multiplexed-readout assay that uses bronchial epithelial cell, a human lung primary cell, with measurements taken at 24 hours after chemical dosing in a 96-well plate.BSK_BE3C_PAI1 is an assay component measured in the BSK_BE3C assay. It measures PAI-1 antibody related to regulation of gene expression using ELISA technology.Data from the assay component BSK_BE3C_PAI1 was analyzed into 1 assay endpoint. […]
The source made the active and inactive calls. The calls were made as follows: active = hit-call score of the fitted dose curve at least 0.9, where 1 is the maximum; inactive = score below 0.9.
Entry note: the call must match one of active, inactive

{"LINE NOTATION": "Clc1cc(Cl)c2c(c1)N=C1CCCCCN1C2", "DISCRETE LABEL": "inactive"}

What was the test verdict on `COc1cccc([C@H](O)C2CCN(CCc3ccc(F)cc3)CC2)c1OC` ? inactive

What was the test verdict on `CN(C)c1ccc(C(=C2C=CC(=[N+](C)C)C=C2)c2ccc(N(C)C)cc2)cc1` ? active

What was the test verdict on `CCCCCCCC[Si](OCC)(OCC)OCC` ? inactive

What was the test verdict on `O=C1CCC(C2CCCCC2)CC1` ? inactive

What was the test verdict on `Cc1cn([C@H]2C[C@H](N=[N+]=[N-])[C@@H](CO)O2)c(=O)[nH]c1=O` ? inactive

What was the test verdict on `Cc1cc2c(cc1C(F)(F)F)N(C(=O)Nc1ccc(Oc3cccnc3C)nc1)CC2` ? inactive

What was the test verdict on `Cc1ccc2oc(CN(Cc3ccccc3)C(=O)Nc3c(F)cc(F)cc3F)c(-c3ccc(Cl)cc3)c2c1` ? inactive

Source: PubChem BioAssay (EPA / NIEHS)
